Reference source: PubChem BioAssay

Target: NADPH oxidase 5 (Homo sapiens)
Test: NOX5-dependent H2O2 signal modulators, primary screen, NOX inhibitor project, cell-based, HEK293-NOX5, Amplex Red fluorescence (AID 1161)
Details: HEK293-NOX5, ionomycin, 45 min, higher = more signal
Decision: z-score compared against -3; not below it gives 1, below it gives 0.

| COMPOUND | ASSIGNED CLASS |
| --- | --- |
| COC(=O)[C@H](C)NC(=O)CCC1CC(OC(=O)NCc2cccc3ccccc23)CC2(CCCC(COC(=O)NCC(c3ccccc3)c3ccccc3)O2)O1 (some centres not stated) | 1 |

Identify whether the reported z-score of the following compound is -3 or greater: COc1cccc([C@H]2Oc3ccc(OC)cc3C(=NOC[C@@H](O)[C@H]3O[C@@H]4OC(C)(C)O[C@@H]4[C@H]3O)[C@@H]2O)c1
1

Reported z-score reaches at least -3 for Cc1cc2c(nc1C)CCCCN2CC(C)ON=C[C@@H](C)[C@H](OCc1ccccc1)C(C)C (some centres not stated) ?
0

Tell me whether z-score is at least -3 here: CON=C(C)CCC(=O)OC[C@H]1O[C@H](c2ccccc2)C=C[C@@H]1Oc1ccc(OC)cc1
0

Does z-score meet or surpass -3 for C[C@H]1Cc2c(COc3ccccc3)nc3c(c2CO1)CN(CCOc1ccccc1)CC3 ?
1

Tell me whether z-score is at least -3 here: CCCNC(=O)OC[C@H]1O[C@H](CCON=C(C)CCN2CCc3nc(CC)c(CC)cc3C2)C=C[C@@H]1Oc1ccc(OC)cc1
0

Identify whether the reported z-score of the following compound is -3 or greater: CCOC(=O)[C@H](Cc1ccccc1)NC(=O)CCC1CC(OC(=O)NCc2cccc3ccccc23)CC2(CCCC(COC(=O)NCCC(C)C)O2)O1 (some centres not stated)
1
